Below, each entry is listed alongside its reported inhibition at 50 µM.
Molecular target: SIRT3 (Homo sapiens, UniProt Q9NTG7)
Sequence (Q9NTG7 1-399): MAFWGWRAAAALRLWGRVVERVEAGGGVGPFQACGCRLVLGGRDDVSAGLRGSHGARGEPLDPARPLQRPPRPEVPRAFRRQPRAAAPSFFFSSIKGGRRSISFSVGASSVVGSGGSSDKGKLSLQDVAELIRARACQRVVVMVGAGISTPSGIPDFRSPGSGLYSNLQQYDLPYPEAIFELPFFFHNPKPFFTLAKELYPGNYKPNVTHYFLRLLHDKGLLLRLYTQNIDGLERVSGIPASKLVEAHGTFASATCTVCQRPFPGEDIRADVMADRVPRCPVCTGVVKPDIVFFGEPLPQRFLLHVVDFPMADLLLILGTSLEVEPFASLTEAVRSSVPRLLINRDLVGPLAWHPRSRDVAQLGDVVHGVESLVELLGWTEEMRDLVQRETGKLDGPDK
Assay: SIRT-Glo enzyme inhibition assay, SIRT3
Conditions: read-out: SIRT3 percentage inhibition at 50 µM compound, 50 µM compound
MEASURED_PROPERTY: inhibition at 50 µM (%)

>>> df
                                   compound  unit_of_measure  numeric_readout
0  NC(=O)C(Cc1c(O)ccc2cc(Br)ccc12)C(=O)c1ccc(Br)cc1 (stereo not drawn)                %               42
1  NC(=O)CCNC(=O)C(Cc1c(O)ccc2cc(Br)ccc12)C(=O)c1cccc(Br)c1 (stereo not drawn)                %               20
2  NC(=O)C(Cc1c(O)ccc2cc(Br)ccc12)C(=O)c1cccc(Br)c1 (stereo not drawn)                %               41

----------
Target: SIRT3 (Homo sapiens, UniProt Q9NTG7)
Assay: SIRT-Glo enzyme inhibition assay, SIRT3
Details: read-out: SIRT3 percentage inhibition at 50 µM compound, 50 µM compound
Cut-off 30% on inhibition at 50 µM, inclusive. At or above means yes; below means no.

In [3]: df
Out[3]:
                                    molecule  class_label
 0  NC(=O)CCNC(=O)C(Cc1c(O)ccc2cc(Br)ccc12)C(=O)c1ccc(C(F)(F)F)cc1 (centres unmarked)           no
 1  CNC(=O)C(Cc1c(O)ccc2cc(Br)ccc12)C(=O)c1ccc(Br)cc1 (centres unmarked)           no
 2  NC(=O)CCNC(=O)C(Cc1c(O)ccc2cc(Br)ccc12)C(=O)c1ccc(Br)cc1 (centres unmarked)           no
 3  O=C(NCCO)C(Cc1c(O)ccc2cc(Br)ccc12)C(=O)c1ccc(Cl)cc1 (centres unmarked)           no
 4  O=C(NCCO)C(Cc1c(O)ccc2cc(Br)ccc12)C(=O)c1cccc(Br)c1 (centres unmarked)          yes
 5  NC(=O)C(Cc1c(O)ccc2cc(Br)ccc12)C(=O)c1ccc(C(F)(F)F)cc1 (centres unmarked)           no
 6  NC(=O)CCNC(=O)C(Cc1c(O)ccc2cc(Br)ccc12)C(=O)c1ccc(Cl)cc1 (centres unmarked)           no
 7  NC(=O)CCNC(=O)C(Cc1c(O)ccc2cc(Br)ccc12)C(=O)c1cccc(C(F)(F)F)c1 (centres unmarked)           no
 8  O=C(NCCO)C(Cc1c(O)ccc2cc(Br)ccc12)C(=O)c1ccc(C(F)(F)F)cc1 (centres unmarked)           no
 9  NC(=O)C(Cc1c(O)ccc2cc(Br)ccc12)C(=O)c1ccc(F)cc1 (centres unmarked)          yes
10  O=C(NCCCO)C(Cc1c(O)ccc2cc(Br)ccc12)C(=O)c1cccc(Br)c1 (centres unmarked)          yes
11  NC(=O)C(Cc1c(O)ccc2cc(Br)ccc12)C(=O)c1cccc(C(F)(F)F)c1 (centres unmarked)           no
12  O=C(NCCO)C(Cc1c(O)ccc2cc(Br)ccc12)C(=O)c1ccc(Br)cc1 (centres unmarked)           no
13  CNC(=O)CCNC(=O)C(Cc1c(O)ccc2cc(Br)ccc12)C(=O)c1ccc(Cl)cc1 (centres unmarked)           no
14  CNC(=O)C(Cc1c(O)ccc2cc(Br)ccc12)C(=O)c1ccc(C(F)(F)F)cc1 (centres unmarked)           no
15  CNC(=O)CCNC(=O)C(Cc1c(O)ccc2cc(Br)ccc12)C(=O)c1ccc(C(F)(F)F)cc1 (centres unmarked)           no
